target: T1, FcRL1, overexpressed on 3T3 cells (UniProt Q96LA6 17-429, limits assumed)
T1 construct: whole, on cells
T1 sequence (looked up): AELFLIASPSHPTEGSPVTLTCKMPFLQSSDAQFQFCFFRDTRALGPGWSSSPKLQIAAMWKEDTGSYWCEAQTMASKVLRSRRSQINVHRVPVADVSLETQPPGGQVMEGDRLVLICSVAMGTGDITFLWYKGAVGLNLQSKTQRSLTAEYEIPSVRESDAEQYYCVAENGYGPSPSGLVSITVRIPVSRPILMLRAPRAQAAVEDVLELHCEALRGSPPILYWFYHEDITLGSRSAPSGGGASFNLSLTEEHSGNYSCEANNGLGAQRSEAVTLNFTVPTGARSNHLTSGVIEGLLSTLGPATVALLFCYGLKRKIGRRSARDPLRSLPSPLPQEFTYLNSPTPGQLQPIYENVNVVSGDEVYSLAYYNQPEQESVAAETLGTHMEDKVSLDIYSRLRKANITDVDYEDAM
measurementProtocol: phage clone on 3T3-FcRL1 cells
measurementLabel: binding result

[[record]]
binder = "ET200-109 (scFv, screened as phage clone; entry is VL-linker-VH-His tag-HA tag) scFv: LPVLTQPPSASATPGQRVTISCSGTTSNIGSNTVHWYQQLPGTAPKLLIYNNNQRPSGVPDRFSGSKSGTSASLAISGLRSEDEATYSCATWDDSLSGVVFGGGTKLTVLGSRGGGGSGGGGSGGGGSLEMAEVQLVQSGAEVKKPGSSVKVSCKASGGTFSSYAISWVRQAPGQGLEWMGGIIPIFGTANYAQKFQGRVTITADESTSTAYMELSSLRSEDTAVYYCARDPAYGDYEYDAFDIWGQGTMVTVSSTSGQAGQHHHHHHGAYPYDVPDYAS"
measurementlabel = "binding result"
val = "no binding"

[[record]]
binder = "ET200-104 (scFv, screened as phage clone; entry is VL-linker-VH-His tag-HA tag) scFv: NFMLTQPHSVSESPGKTVTISCTRSSGSIASNYVQWYQQRPGSAPTTVIYEDNQRPSGVPDRFSGSIDSSSNSASLTISGLKTEDEADYYCQSYDSSNVVFGGGTKVTVLGSRGGGGSGGGGSGGGGSLEMAEVQLVESGGGLVQPGGSLRLSCAASGFTFSSYEMNWVRQAPGKGLEWVSYISSSGSTIYYADSVKGRFTISRDNAKNSLYLQMNSLRAEDTAVYYCARWDYGMDVWGQGTTVTVSSTSGQAGQHHHHHHGAYPYDVPDYAS"
measurementlabel = "binding result"
val = "no binding"

